Experiment: compound fluorescence in toxin protease inhibitor counterscreen, primary screen, artefact control for toxin protease inhibitor project, biochemical, multiplex microsphere, HTS (AID 624483)
Conditions: compound autofluorescence counterscreen, microsphere flow cytometry; hits give high values
The campaign covered roughly 360,000 compounds. About 11,000 (3.1%) were called active. Another 2% or so got no clear call; they are omitted. Shown is part of a subset that was picked to be rich in actives.
Reported Endpoint: fluorescence intensity
Please respond with just the number, no unit label.

Compound	fluorescence intensity
CC1(C(=O)Nc2ccc3c(c2)OCCO3)CCN1C(=O)Cc1cc(F)ccc1F (stereo unspecified)	3870
CCc1ccc(-c2nnn(Cc3nn[nH]n3)n2)cc1	20100
CC(C)(C)NC(=O)NC(=O)COC(=O)Cc1c(F)cccc1Cl	4470
CCC1(CC)NC(=O)N(Cc2nc3ccccc3s2)C1=O	3380
CC(=O)N(c1ccc2oc(=O)sc2c1)S(=O)(=O)c1ccc(C)cc1	3830
CC1(C(=O)NS(=O)(=O)c2cccc(OC(F)F)c2)CCN1C(=O)C1CC1 (stereo unspecified)	3660

So what's the measured fluorescence intensity for this one? CC(C)CC1C(=O)N(Cc2cn(Cc3ccco3)nn2)CCS(=O)(=O)N1Cc1ccc(-c2ccc(Cl)c(Cl)c2)cc1 (stereo unspecified) 3840

So what's the measured fluorescence intensity for this one? CCc1ccc(C(=O)COC(=O)c2ccco2)cc1 5070

So what's the measured fluorescence intensity for this one? CN(C)c1nc(N)nc(Cn2nnc(-c3ccc(C(F)(F)F)cc3)n2)n1 5180

So what's the measured fluorescence intensity for this one? CN(Cc1nc2ccccc2s1)C(=O)c1ccc(F)cc1 3850

So what's the measured fluorescence intensity for this one? COc1ccc(-c2nnn(Cc3nc(N)nc(N4CCCCC4)n3)n2)cc1 4610
